assay_target: KRAS G12D-BRAF complex (Homo sapiens (Human), UniProt P01116+P62937, G12D)
Sequence (P01116-2 other isoform, or with tags, fused parts or gaps G12D): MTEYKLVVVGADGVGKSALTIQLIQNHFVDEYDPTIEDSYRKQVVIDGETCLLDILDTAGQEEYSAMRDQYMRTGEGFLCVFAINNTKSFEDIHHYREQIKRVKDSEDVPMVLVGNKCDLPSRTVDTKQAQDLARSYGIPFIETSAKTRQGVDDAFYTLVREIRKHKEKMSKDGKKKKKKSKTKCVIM
Sequence (P62937 whole entry): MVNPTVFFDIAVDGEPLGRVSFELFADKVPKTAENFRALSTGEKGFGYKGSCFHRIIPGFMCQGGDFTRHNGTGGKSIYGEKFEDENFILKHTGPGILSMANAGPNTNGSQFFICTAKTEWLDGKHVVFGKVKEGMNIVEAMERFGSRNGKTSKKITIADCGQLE
assay_method_text: KRAS-BRAF with CYPA (500 nM) interaction assay (TR-FRET), G12D
Procedure: Kras-BRAF with CYPA (500 nM) Interaction Assay In this example, TR-FRET was also used to measure the compound or compound-CYPA dependent disruption of the KRAS G12C-BRAF complex. This protocol was also used to measure disruption of KRAS G12D or KRAS G12V binding to BRAF by a compound of the invention, respectively. […] TR-FRET signal was read on a […] microplate reader (Ex320 nm, Em 665/615 nm). […]
quantity: IC50 (nM)

• CO[C@@H](C)c1ncc(N2CCN(CC(F)(F)F)CC2)cc1-c1c2c3c(F)c(ccc3n1CC(F)(F)F)-c1csc(n1)C[C@H](NC(=O)[C@H](C(C)C)N(C)C(=O)N1CCOCC1)C(=O)N1CCC[C@H](N1)C(=O)OCC(C)(C)C2 (atropisomer, axis not shown; (M)) = 7
• CO[C@@H](C)c1ncc(N2CCOCC2)cc1-c1c2c3cc(c(F)cc3n1CC(F)(F)F)-c1csc(n1)C[C@H](NC(=O)[C@H](C(C)C)N(C)C(=O)N1CCOCC1)C(=O)N1CCC[C@H](N1)C(=O)OCC(C)(C)C2 (atropisomer, axis not shown; (M)) = 112
• CO[C@@H](C)c1ncc(N2CCN(CC(F)(F)F)CC2)cc1-c1c2c3cc(ccc3n1CC(F)(F)F)-c1csc(n1)C[C@H](NC(=O)[C@H](C(C)C)N(C)C(=O)N1CCOCC1)C(=O)N1CCC[C@H](N1)C(=O)OCC(C)(C)C2 (atropisomer, axis not shown; (M)) = 71
